system: 463943-066-T-J2-PDC complex spheroid growth; experiment: Anticancer human tumor 463943-066-T-J2-PDC patient-derived colon adenocarcinoma cell line growth inhibition [Asc]; details: second compound 0.0316 µM; first compound 0.0316 µM; stronger effect = lower value
metric: viability, T/C

Ask | Given the entry NC1CCC(NC2CC2c2ccccc2)CC1 (stereo not drawn) + Cc1c(S(C)(=O)=O)c(-c2cc(F)cc(N3CCN(c4ccc(NS(=O)(=O)c5ccc(NC(CCN6CCC(C(=O)OCCCP(=O)(O)O)CC6)CSc6ccccc6)c(S(=O)(=O)C(F)(F)F)c5)cc4)CC3)c2)c(-c2ccc(Cl)cc2)n1C(C)C , report its measured viability, T/C.
Reply | 88.5%

Ask | Given the entry C=CC(=O)N1CCN(c2nc(=O)n(-c3c(C)ccnc3C(C)C)c3nc(-c4c(O)cccc4F)c(F)cc23)C(C)C1 (stereo not drawn) + Cc1c(S(C)(=O)=O)c(-c2cc(F)cc(N3CCN(c4ccc(NS(=O)(=O)c5ccc(NC(CCN6CCC(C(=O)OCCCP(=O)(O)O)CC6)CSc6ccccc6)c(S(=O)(=O)C(F)(F)F)c5)cc4)CC3)c2)c(-c2ccc(Cl)cc2)n1C(C)C , report its measured viability, T/C.
Reply | 84.9%

Turning to the following compound.
Ask | Given the entry O=C(c1cc(Cc2n[nH]c(=O)c3ccccc23)ccc1F)N1CCN(C(=O)C2CC2)CC1 + CNC(C)C(=O)NC1CN(S(=O)(=O)c2cccc(S(=O)(=O)N3CCC4CCC(C(=O)NC(c5ccccc5)c5ccccc5)N4C(=O)C(NC(=O)C(C)NC)C3)c2)CCC2CCC(C(=O)NC(c3ccccc3)c3ccccc3)N2C1=O , report its measured viability, T/C.
Reply | 98.1%

###

test system: 463943-066-T-J2-PDC complex spheroid growth; assay: Anticancer human tumor 463943-066-T-J2-PDC cell line growth inhibition [Asc]; details: second compound 0.316 µM; first compound 0.01 µM; stronger effect = lower value;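 also: compound exposure lasted 7 days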;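 as to viability, T/C: 100% = DMSO vehicle control wells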
metric: viability, T/C

Ask | Given the entry CCN1CCN(Cc2ccc(Nc3ncc(F)c(-c4cc(F)c5nc(C)n(C(C)C)c5c4)n3)nc2)CC1 + CNC(C)C(=O)NC1CN(S(=O)(=O)c2cccc(S(=O)(=O)N3CCC4CCC(C(=O)NC(c5ccccc5)c5ccccc5)N4C(=O)C(NC(=O)C(C)NC)C3)c2)CCC2CCC(C(=O)NC(c3ccccc3)c3ccccc3)N2C1=O , report its measured viability, T/C.
Reply | 103%

###

// reported pIC50 per item
tested on: 463943-066-T-J2-PDC complex spheroid growth; assay: Anticancer human tumor 463943-066-T-J2-PDC cell line growth inhibition [Asc]; settings: curve of first compound; second compound 0.00949 µM;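 also: compound exposure lasted 7 days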
pIC50: −log10 of the molar value.

Ask | Given the entry CNC(C)C(=O)NC1CN(S(=O)(=O)c2cccc(S(=O)(=O)N3CCC4CCC(C(=O)NC(c5ccccc5)c5ccccc5)N4C(=O)C(NC(=O)C(C)NC)C3)c2)CCC2CCC(C(=O)NC(c3ccccc3)c3ccccc3)N2C1=O (centres undefined) + CCN1C(C(=O)NC23CCC(C(=O)O)(CC2)CC3)C(c2cccc(Cl)c2F)C2(C(=O)Nc3cc(Cl)ccc32)C12CCCCC2 , report its measured pIC50.
Reply | < 6.00

###

tested on: 463943-066-T-J2-PDC complex spheroid growth; assay: Anticancer human tumor 463943-066-T-J2-PDC cell line growth inhibition [Asc]; settings: second compound 0.03 µM; first compound 0.01 µM; stronger effect = lower value;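 also: compound exposure lasted 7 days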;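 as to viability, T/C: 100% = DMSO vehicle control wells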
// reported viability, T/C per item
The reply should be a number in %, with the unit left off.

Answered cases to consult:
Ask | Given the entry Cn1ncnc1[C@H]1c2n[nH]c(=O)c3cc(F)cc(c23)N[C@@H]1c1ccc(F)cc1 + CCN1C(C(=O)NC23CCC(C(=O)O)(CC2)CC3)C(c2cccc(Cl)c2F)C2(C(=O)Nc3cc(Cl)ccc32)C12CCCCC2 , report its measured viability, T/C.
Reply | 98.2

Ask | Given the entry CCN1CCN(Cc2ccc(Nc3ncc(F)c(-c4cc(F)c5nc(C)n(C(C)C)c5c4)n3)nc2)CC1 + CCN1C(C(=O)NC23CCC(C(=O)O)(CC2)CC3)C(c2cccc(Cl)c2F)C2(C(=O)Nc3cc(Cl)ccc32)C12CCCCC2 , report its measured viability, T/C.
Reply | 93.2

Ask | Given the entry CNC(C)C(=O)NC1CN(S(=O)(=O)c2cccc(S(=O)(=O)N3CCC4CCC(C(=O)NC(c5ccccc5)c5ccccc5)N4C(=O)C(NC(=O)C(C)NC)C3)c2)CCC2CCC(C(=O)NC(c3ccccc3)c3ccccc3)N2C1=O (stereo unspecified) + CCN1C(C(=O)NC23CCC(C(=O)O)(CC2)CC3)C(c2cccc(Cl)c2F)C2(C(=O)Nc3cc(Cl)ccc32)C12CCCCC2 , report its measured viability, T/C.
Reply | 96.6

Further cases:
Ask | Given the entry NC1CCC(NC2CC2c2ccccc2)CC1 (stereo unspecified) + CCN1C(C(=O)NC23CCC(C(=O)O)(CC2)CC3)C(c2cccc(Cl)c2F)C2(C(=O)Nc3cc(Cl)ccc32)C12CCCCC2 , report its measured viability, T/C.
Reply | 82.5

Ask | Given the entry O=C(c1ccc(F)c(F)c1Nc1ccc(I)cc1F)N1CC(O)([C@@H]2CCCCN2)C1 + CCN1C(C(=O)NC23CCC(C(=O)O)(CC2)CC3)C(c2cccc(Cl)c2F)C2(C(=O)Nc3cc(Cl)ccc32)C12CCCCC2 , report its measured viability, T/C.
Reply | 77.5

Ask | Given the entry COc1c(OCCCN2CCOCC2)ccc2c3n(c(=NC(=O)c4cnc(N)nc4)nc12)CCN3 + CCN1C(C(=O)NC23CCC(C(=O)O)(CC2)CC3)C(c2cccc(Cl)c2F)C2(C(=O)Nc3cc(Cl)ccc32)C12CCCCC2 , report its measured viability, T/C.
Reply | 88.5
